// provenance: paper PMC2593629

# target_of_assay: mouse brain MAGL (Mus musculus, UniProt O35678)
# Sequence (O35678 1-303): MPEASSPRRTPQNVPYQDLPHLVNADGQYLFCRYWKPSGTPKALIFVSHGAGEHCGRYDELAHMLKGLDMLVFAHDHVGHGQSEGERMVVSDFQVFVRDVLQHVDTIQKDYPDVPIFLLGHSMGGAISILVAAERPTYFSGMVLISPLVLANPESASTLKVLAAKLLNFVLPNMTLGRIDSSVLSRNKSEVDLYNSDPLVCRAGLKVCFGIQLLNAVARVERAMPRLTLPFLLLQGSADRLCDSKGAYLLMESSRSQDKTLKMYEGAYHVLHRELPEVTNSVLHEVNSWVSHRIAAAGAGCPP
# test_name: MAGL activity in mouse brain membranes
# Assay type: biochemical
# condition_notes: read-out: MAGL IC50; substrate 2-AG
quantity_measured: IC50

Lookup: Which IC50 value is on record for CCCCCCCCCCCCP(=O)(OCC)Oc1ccc(C#N)cc1 (stereo not shown) [OP 4] ?
Found: 70 nM
